These measurements were taken from ChEMBL document CHEMBL1201862.

- SYSTEM: Induced myeloid leukemia cell differentiation protein Mcl-1 (Homo sapiens, UniProt Q07820)
- Sequence (Q07820 whole entry): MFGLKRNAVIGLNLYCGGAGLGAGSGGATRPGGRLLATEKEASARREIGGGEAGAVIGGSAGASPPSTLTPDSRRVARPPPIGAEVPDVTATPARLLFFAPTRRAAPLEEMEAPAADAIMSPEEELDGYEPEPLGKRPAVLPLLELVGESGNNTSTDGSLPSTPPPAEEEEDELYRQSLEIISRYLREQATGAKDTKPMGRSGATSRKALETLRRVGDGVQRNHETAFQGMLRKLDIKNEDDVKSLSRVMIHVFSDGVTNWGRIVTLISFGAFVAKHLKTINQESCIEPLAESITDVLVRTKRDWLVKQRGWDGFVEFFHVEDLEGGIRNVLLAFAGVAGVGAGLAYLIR
- Assay type: functional
Active and inactive are the calls of the source.
ATTRIBUTE_MEASURED: IC50

COc1cc2c(ccc3cc(OC)c(OC)c(O)c32)cc1O 1.95 µM (active)
CN(C)c1ccc(NC(=O)/C=C/c2ccccc2Cl)cc1 > 54 µM (active)
CCN(/N=C/c1ccc(N(C)C)cc1)c1nc2ccccc2[nH]1 1.44 µM (active)
COc1cccc(C(=O)Nc2cc(Cl)c(O)c(Cl)c2)c1 3.46 µM (not active)
O=C1/C(=C/C=C/c2ccco2)SC(=S)N1NS(=O)(=O)c1ccccc1 3.1 µM (active)

Query: Query (compound): CCOC(=O)C1CCN(C(=O)Nc2ccc3nc(-c4ccco4)c(-c4ccco4)nc3c2)CC1 ; field requested: IC50
Reply: 1.46 µM (active)

Query: Also COc1cc(/C=C2/SC(=S)NC2=O)ccc1OS(=O)(=O)c1ccc(C)cc1 , if possible.
Reply: 3.44 µM (active)

====

- Test system: Streptococcus
- ASSAY_SUMMARY: Group A Streptococcus viability loss, dose response, counter-screen for streptokinase expression inhibitor project, luminescence, BacTiterGlo (AID 1915);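 also: potency for reduction of bacterial viability or growth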
- Type: functional, organism-based
The source made the active and inactive calls.
Listed here: items and their measured EC50.

MOLECULE	SYSTEM	EC50
CC/C(=N\NC(=S)Nc1cc(C)ccc1C)c1ccc(OC(F)F)cc1	Streptococcus	11.8 µM (active)
COc1ccc(OCC(=O)NNC(=S)NC(=O)C2CC2)cc1	Streptococcus	23.3 µM (active)
C/C(N)=C(/C#N)C(=O)CSc1nc2scc(-c3ccc(F)cc3)c2c(=O)n1C	Streptococcus	3.17 µM (active)
O=C(O)c1cc(-c2ccc(-c3c(-c4ccc5c(c4)OCO5)noc3-c3ccsc3)cc2)nc2ccccc12	Streptococcus	3.63 µM (active)
Cc1cc(C(F)F)nn1CC(=O)NC1C(=O)N2C(C(=O)O)=C(CSc3nnnn3C)CSC12 (stereo unspecified)	Streptococcus	0.106 µM (active)

Let us examine a further case.
Query: Quick one: EC50 of Cc1cccc(C)c1OCC(=O)Nc1ccccc1N1CCCCC1 ?
Reply: 12.5 µM (active)

====

- SYSTEM: Peroxisome proliferator-activated receptor gamma/Nuclear receptor coactivator 1 (Homo sapiens, UniProt P37231)
- Sequence (P37231 whole entry): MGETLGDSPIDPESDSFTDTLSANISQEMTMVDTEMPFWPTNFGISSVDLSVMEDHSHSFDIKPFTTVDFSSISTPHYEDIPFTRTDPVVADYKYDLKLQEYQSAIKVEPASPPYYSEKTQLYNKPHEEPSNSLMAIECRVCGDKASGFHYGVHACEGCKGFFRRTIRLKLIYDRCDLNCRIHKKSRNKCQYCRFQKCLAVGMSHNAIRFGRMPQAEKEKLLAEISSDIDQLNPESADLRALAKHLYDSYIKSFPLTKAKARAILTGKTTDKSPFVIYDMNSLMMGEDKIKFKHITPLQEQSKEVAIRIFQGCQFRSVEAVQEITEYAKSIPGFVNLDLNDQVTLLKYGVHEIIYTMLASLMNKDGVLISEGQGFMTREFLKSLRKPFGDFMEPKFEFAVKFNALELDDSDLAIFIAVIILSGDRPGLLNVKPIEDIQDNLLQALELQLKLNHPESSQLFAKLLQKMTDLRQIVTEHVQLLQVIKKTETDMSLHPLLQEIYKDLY
- Sequence (Q15788 whole entry, further chain): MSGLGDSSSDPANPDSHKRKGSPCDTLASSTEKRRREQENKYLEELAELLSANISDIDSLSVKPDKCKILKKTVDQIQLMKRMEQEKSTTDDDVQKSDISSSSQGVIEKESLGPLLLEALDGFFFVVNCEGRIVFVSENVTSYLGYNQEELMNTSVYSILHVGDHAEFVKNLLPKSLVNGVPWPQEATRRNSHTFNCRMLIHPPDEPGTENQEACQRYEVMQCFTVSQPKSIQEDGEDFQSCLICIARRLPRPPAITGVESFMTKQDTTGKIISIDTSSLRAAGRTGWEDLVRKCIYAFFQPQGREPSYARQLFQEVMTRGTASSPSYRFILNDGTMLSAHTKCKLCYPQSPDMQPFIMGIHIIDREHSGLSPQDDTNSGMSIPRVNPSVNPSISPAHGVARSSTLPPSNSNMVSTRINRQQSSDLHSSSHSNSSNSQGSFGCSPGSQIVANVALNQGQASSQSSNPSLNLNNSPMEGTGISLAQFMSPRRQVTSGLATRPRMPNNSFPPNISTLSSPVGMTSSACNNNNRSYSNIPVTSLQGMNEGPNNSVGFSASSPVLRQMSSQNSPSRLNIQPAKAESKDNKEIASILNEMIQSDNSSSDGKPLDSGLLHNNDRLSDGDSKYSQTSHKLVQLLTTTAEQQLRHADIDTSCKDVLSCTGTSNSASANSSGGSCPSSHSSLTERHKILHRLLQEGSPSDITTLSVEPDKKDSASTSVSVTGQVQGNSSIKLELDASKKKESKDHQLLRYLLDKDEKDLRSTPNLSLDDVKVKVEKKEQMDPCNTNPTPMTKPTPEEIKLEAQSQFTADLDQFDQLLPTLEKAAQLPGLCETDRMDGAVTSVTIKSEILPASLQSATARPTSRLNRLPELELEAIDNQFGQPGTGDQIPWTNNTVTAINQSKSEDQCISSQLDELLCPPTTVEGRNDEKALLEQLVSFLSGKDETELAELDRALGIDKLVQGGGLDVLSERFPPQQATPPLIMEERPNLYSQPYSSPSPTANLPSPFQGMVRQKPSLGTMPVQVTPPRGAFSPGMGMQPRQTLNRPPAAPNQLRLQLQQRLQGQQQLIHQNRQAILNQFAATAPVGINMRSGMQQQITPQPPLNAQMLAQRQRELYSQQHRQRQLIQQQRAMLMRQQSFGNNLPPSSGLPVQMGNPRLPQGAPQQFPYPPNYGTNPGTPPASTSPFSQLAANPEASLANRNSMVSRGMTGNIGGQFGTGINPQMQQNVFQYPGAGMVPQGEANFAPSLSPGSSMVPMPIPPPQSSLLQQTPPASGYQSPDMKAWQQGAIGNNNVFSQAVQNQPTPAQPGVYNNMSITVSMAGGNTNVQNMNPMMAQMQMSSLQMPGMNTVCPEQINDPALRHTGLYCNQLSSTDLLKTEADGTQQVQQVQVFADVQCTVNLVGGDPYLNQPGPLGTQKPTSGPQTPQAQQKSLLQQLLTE
- ASSAY_SUMMARY: TR-FRET dose response biochemical High Throughput Screening assay for agonists of the steroid receptor coactivator 1 (SRC-1) recruitment by the peroxisome proliferator-activated receptor gamma (PPAR gamma): non-selective agonists. [Related pubchem assays (depositor defined):AID1300, AID1808, AID504735, AID631]
- Assay type: protein assay
Active and inactive are the calls of the source.
ATTRIBUTE_MEASURED: EC50

Query: For the molecule shown here, Cc1cccc(-n2c(S)nnc2-c2ccco2)c1 , give the reported EC50.
Reply: > 79.4 µM (inactive)

====

- Test system: SN12K1
- ASSAY_SUMMARY: cells
- Format: functional
- TEST_CONTEXT: Homo sapiens
Activity calls are given as the source filed them.
Hello, when you answer, please use one of the following outcomes: Y = active, N = inactive

These recorded examples may help you get a feel for the data.
COMPOUND	ASSIGNED_CATEGORY
COc1cccc2c1C(=O)c1c(O)c3c(c(O)c1C2=O)C[C@@](O)(/C(C)=N/NC(=O)c1ccccc1)C[C@@H]3OC1CC(N)C(O)C(C)O1 (some centres undefined)	Y
COc1ccc2[nH]c3ccc4cc[n+](CCN5CCC(C6CCN(CC[n+]7ccc8ccc9[nH]c%10ccc(OC)cc%10c9c8c7)CC6)CC5)cc4c3c2c1	Y
C=C1C(=O)C[C@@]23CCC[C@@]12CC(O)C3 (some centres undefined)	N

Query: Fill in: this test's call for [N-]=[N+]=CC(=O)OCC(N)C(=O)O (centres undefined) is ___
Reply: Y
